# credit: paper PMC5829162

attribute-measured: melting point

See these solved cases before continuing.
{"compound": "CNc1cc(Nc2ccc(CC(=O)Nc3cccc(C(F)(F)F)c3)cc2)ncn1 [13r]", "melting point": "216 to 218 °C"}
{"compound": "O=C(Cc1ccc(Nc2cc(N3CCOCC3)ncn2)cc1)NC1CC1 [13ai]", "melting point": "110 to 112 °C"}
{"compound": "Cn1nc(C(C)(C)C)cc1NC(=O)Cc1ccc(Oc2cc(Nc3cccc(C(F)(F)F)c3)ncn2)cc1 [13f]", "melting point": "140 to 142 °C"}
{"compound": "CC(C)(C)c1cc(NC(=O)Cc2ccc(Nc3cc(Oc4ccc(Br)cc4)ncn3)cc2)no1 [13o]", "melting point": "188 to 190 °C"}
{"compound": "CC(C)(C)c1cc(NC(=O)Cc2ccc(Nc3cc(N4CCOCC4)ncn3)cc2)no1 [13p]", "melting point": "218 to 220 °C"}
{"compound": "Cn1nc(C(C)(C)C)cc1NC(=O)Nc1ccc(Nc2cc(Nc3ccc(S(C)(=O)=O)cc3)ncn2)cc1 [24a]", "melting point": "238 to 240 °C"}
{"compound": "CC(C)(C)c1cc(NC(=O)Cc2ccc(Nc3cc(Nc4cccc(C(F)(F)F)c4)ncn3)cc2)no1 [13m]", "melting point": "254 to 256 °C"}
{"compound": "CCCCNc1cc(Oc2ccc(CC(=O)Nc3nc(C(C)(C)C)cs3)cc2)ncn1 [13aj]", "melting point": "102 to 104 °C"}

Incoming: Name the reported melting point value associated with the compound CC(C)(C)c1cc(NC(=O)Cc2ccc(Nc3cc(NCCCN4CCCC4)ncn3)cc2)no1 [13n]
Outgoing: 154 to 156 °C

Incoming: Continue with CN(C)c1cc(Oc2ccc(CC(=O)Nc3cc(C(C)(C)C)on3)cc2)ncn1 [13q]
Outgoing: 170 to 172 °C

Incoming: # iterate: CC(C)(C)c1cc(NC(=O)Cc2ccc(Oc3cc(Nc4cccc(C(F)(F)F)c4)ncn3)cc2)no1 [13l]
Outgoing: 120 to 122 °C

###

Reported melting point values are given for each entry in this list.

The following compounds have reported results that may help.
{"compound": "CNc1cc(Nc2ccc(CC(=O)Nc3cc(C(C)(C)C)nn3C)cc2)ncn1 [13b]", "melting point": "194 to 196 °C"}
{"compound": "CNc1cc(Nc2ccc(CC(=O)Nc3ccc(OC(F)(F)F)cc3)cc2)ncn1 [13z]", "melting point": "220 to 222 °C"}
{"compound": "CS(=O)(=O)c1ccc(Nc2cc(Nc3ccc(CC(=O)NC4CC4)cc3)ncn2)cc1 [13ae]", "melting point": "110 to 112 °C"}

Incoming: # lookup: melting point of CC(C)(C)c1cc(NC(=O)Cc2ccc(Nc3cc(Nc4ccc(S(C)(=O)=O)cc4)ncn3)cc2)no1 [13k]
Outgoing: 168 to 170 °C

Incoming: Field entry: CNc1cc(Oc2ccc(CC(=O)Nc3ccc(C(C)(C)C)cc3)cc2)ncn1 [13x]
Outgoing: 208 to 210 °C

Incoming: Same lookup for Cn1nc(C(C)(C)C)cc1NC(=O)Cc1ccc(Nc2cc(Nc3ccc(S(C)(=O)=O)cc3)ncn2)cc1 [13a] , please.
Outgoing: 134 to 136 °C

Incoming: Also Cc1ccc(-n2nc(C(C)(C)C)cc2NC(=O)Cc2ccc(Nc3cc(Nc4ccc(S(C)(=O)=O)cc4)ncn3)cc2)cc1 [13h] ?
Outgoing: 155 to 157 °C

Incoming: Repeat for the following compound: CC(C)(C)c1cc(NC(=O)Nc2ccc(Nc3cc(Nc4ccc(S(C)(=O)=O)cc4)ncn3)cc2)no1 [24c]
Outgoing: 245 to 247 °C

Incoming: Proceed to CS(=O)(=O)c1ccc(Nc2cc(Oc3ccc(CC(=O)Nc4cccc(F)c4)cc3)ncn2)cc1 [13aa]
Outgoing: 228 to 230 °C

Incoming: How about this compound: CC(C)(C)c1cc(NC(=O)Cc2ccc(Nc3cc(Nc4ccc(S(C)(=O)=O)cc4)ncn3)cc2)n(-c2ccc(F)cc2)n1 [13g]
Outgoing: 168 to 170 °C
